Assay Target: AgAbp1
Method Summary: SPOT peptide array binding signal intensity (averaged, normalized) (arbitrary units (background-subtracted, floor 0; scale differs between SH3 domains)); higher = stronger binding of the SH3 domain to the peptide
Assay Endpoint: SPOT peptide array binding signal intensity

[[record]]
binder = "YLTRPLPSTPNEDSR"
recorded_number = 7

[[record]]
binder = "NPNRRAPRRPLSTQH"
recorded_number = 134

[[record]]
binder = "SGVRLPAPPPPPRRG"
recorded_number = 606

[[record]]
binder = "SSSSTPPTLPPRRIE"
recorded_number = 7.5

[[record]]
binder = "DFTLPPPPPPPGLDE"
recorded_number = 5

[[record]]
binder = "AAHKTKPSIPPKKVE"
recorded_number = 1520

[[record]]
binder = "KMSRSPPRPPSLKII"
recorded_number = 329

